These entries and their values trace back to patent US20040048790A1.

target: HLA-A*0202 (human); assay: 125I-probe peptide inhibition, purified HLA; conditions: remark: other sources report otherwise
Property measured: IC50 (nM)
Quick reminder: number only, in nM, skip the unit.

QUERY: What value of IC50 has been reported for the following binder? CQLAKTCPV [p53.135]
RESULT: 43

QUERY: Please report the recorded IC50 for KLSQHMTEV [p53.164L2] .
RESULT: 94

QUERY: Request the reported IC50 associated with GLAPPQHLIRV [p53.187]
RESULT: 39

QUERY: Record request: IC50 value, item KLYQGSYGFRV [p53.101L2V11]
RESULT: 48

QUERY: // query IC50 value for entry RMPEAAPPV [p53.65 (9-mer)]
RESULT: 23

QUERY: Given the binder LLPENNVLSPL [p53.25] , what is its reported IC50?
RESULT: 6.2
